- System: Canis familiaris
- assay explanation: Antidiabetic activity in Beagle dog assessed as urinary glucose excretion at 0.03 mg/kg, po administered 1 hr prior to glucose challenge measured after 1 to 8 hrs relative to dapagliflozin
- Format: functional, Canis lupus familiaris, Urine
readout name: Activity
Value and unit, in that order.

Please review the entries below; each comes with its answer.
test smiles: [2H]C([2H])(c1ccc(OC([2H])([2H])C([2H])([2H])[2H])cc1)c1cc([C@@H]2O[C@H](CO)[C@@H](O)[C@H](O)[C@H]2O)ccc1Cl
readout name: Activity
result: 4360 mg
--
test smiles: [2H]C([2H])([2H])C([2H])([2H])Oc1ccc(Cc2cc([C@@H]3O[C@H](CO)[C@@H](O)[C@H](O)[C@H]3O)ccc2Cl)cc1
readout name: Activity
result: 3470 mg

Now, please, on to the next compound.
Q: # query: Activity of entry "[2H]C([2H])(c1ccc(OCC)cc1)c1cc([C@@H]2O[C@H](CO)[C@@H](O)[C@H](O)[C@H]2O)ccc1Cl"
A: 3400 mg

====

- assay explanation: Cmax in Sprague-Dawley rat at 3 mg/kg, po by LC-MS/MS analysis
- Type: ADME, organism-based
- Design: dose 3 mg/kg, route oral
- condition parameters: in vivo
readout name: Cmax (ng/mL)
Write it as a number; the unit ng/mL goes unstated.

Q: Using the record for "[2H]C([2H])([2H])Oc1ccc(C([2H])([2H])c2cc([C@@H]3O[C@H](CO)[C@@H](O)[C@H](O)[C@H]3O)ccc2Cl)cc1" , report its Cmax.
A: 1400

====

Parameter: Cmax. Scope: all listed entries.
- assay explanation: Cmax in Sprague-Dawley rat at 1 mg/kg, po by LC-MS/MS analysis
- Assay type: ADME, organism-based
- Set-up: dose 1 mg/kg, route oral
- condition parameters: in vivo
Remember to follow the number with its unit.

test smiles: COc1ccc(Cc2cc([C@@H]3O[C@H](CO)[C@@H](O)[C@H](O)[C@H]3O)ccc2Cl)cc1
Cmax: 165 ng/mL

// next item, Cmax requested
Q: Which Cmax is listed for "[2H]C([2H])([2H])Oc1ccc(Cc2cc([C@@H]3O[C@H](CO)[C@@H](O)[C@H](O)[C@H]3O)ccc2Cl)cc1" ?
A: 257 ng/mL

====

Below, each entry is listed with its recorded AUC(0-inf).
- assay explanation: AUC (0 to infinity) in Sprague-Dawley rat at 1 mg/kg, po by LC-MS/MS analysis
- Type: ADME, organism-based
- Design: time infinity, dose 1 mg/kg, route oral
- condition parameters: plasma
Response body: numeric value in ng·h/mL, unit text excluded.

test smiles: [2H]C([2H])([2H])Oc1ccc(Cc2cc([C@@H]3O[C@H](CO)[C@@H](O)[C@H](O)[C@H]3O)ccc2Cl)cc1
readout number: 1020

// moving on: another record for AUC(0-inf)
Q: Query: AUC(0-inf); subject: "COc1ccc(Cc2cc([C@@H]3O[C@H](CO)[C@@H](O)[C@H](O)[C@H]3O)ccc2Cl)cc1"
A: 943

====

- study target: Sodium/glucose cotransporter 2 (Homo sapiens, UniProt P31639)
- Sequence (P31639 whole entry): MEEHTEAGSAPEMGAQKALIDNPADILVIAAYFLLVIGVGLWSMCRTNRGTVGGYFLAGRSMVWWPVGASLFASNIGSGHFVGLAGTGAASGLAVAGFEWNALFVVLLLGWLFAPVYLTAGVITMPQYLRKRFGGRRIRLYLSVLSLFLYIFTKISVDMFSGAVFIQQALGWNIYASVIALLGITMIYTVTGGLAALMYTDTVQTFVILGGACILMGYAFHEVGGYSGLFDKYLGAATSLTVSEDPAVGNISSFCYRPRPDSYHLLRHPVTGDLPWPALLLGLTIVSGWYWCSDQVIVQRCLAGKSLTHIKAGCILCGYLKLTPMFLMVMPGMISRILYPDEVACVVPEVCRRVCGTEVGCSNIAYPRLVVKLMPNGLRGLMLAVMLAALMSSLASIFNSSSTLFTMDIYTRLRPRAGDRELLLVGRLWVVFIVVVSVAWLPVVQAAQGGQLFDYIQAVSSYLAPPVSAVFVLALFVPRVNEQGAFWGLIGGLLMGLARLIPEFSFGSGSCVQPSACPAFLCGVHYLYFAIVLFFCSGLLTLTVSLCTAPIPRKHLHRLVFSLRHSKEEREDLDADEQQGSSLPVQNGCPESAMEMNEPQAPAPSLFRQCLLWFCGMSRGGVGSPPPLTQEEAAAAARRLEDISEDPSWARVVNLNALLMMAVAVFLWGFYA
- assay explanation: Inhibition of full length human SGLT2 assessed as methyl-alpha-D-[U-14C]glucopyranoside uptake after 1.5 hrs by cell-based topcount scintillation counting analysis
readout name: pIC50
The scale used: pIC50 is minus the common logarithm of the concentration in molar units.

test smiles: [2H]C([2H])([2H])Oc1ccc(C([2H])([2H])c2cc([C@]3([2H])O[C@H](CO)[C@@H](O)[C@H](O)[C@H]3O)ccc2Cl)cc1
readout number: 8.17

Query molecule follows.
Q: Item: "[2H]C([2H])([2H])Oc1ccc(Cc2cc([C@@H]3O[C@H](CO)[C@@H](O)[C@H](O)[C@H]3O)ccc2Cl)cc1" Test system: Sodium/glucose cotransporter 2 (Homo sapiens, UniProt P31639) Read-out: pIC50 Value: ?
A: 8.60

====

- Tested on: Canis familiaris
- assay explanation: Antidiabetic activity in Beagle dog assessed as urinary glucose excretion at 0.03 mg/kg, po administered 1 hr prior to glucose challenge measured after 1 to 8 hrs relative to dapagliflozin
- Type: functional, Canis lupus familiaris, Urine
We begin with a simple list: items and their reported Activity.
Numbers only; they are read as mg.

test smiles: [2H]C([2H])([2H])Oc1ccc(Cc2cc([C@@H]3O[C@H](CO)[C@@H](O)[C@H](O)[C@H]3O)ccc2Cl)cc1
study target: Canis familiaris
unit text: mg
readout number: 3480
--
test smiles: COc1ccc(Cc2cc([C@@H]3O[C@H](CO)[C@@H](O)[C@H](O)[C@H]3O)ccc2Cl)cc1
study target: Canis familiaris
unit text: mg
readout number: 3620

Below: the item to evaluate.
Q: Please give the measured Activity for this compound: "[2H][C@@]1(c2ccc(Cl)c(Cc3ccc(OCC)cc3)c2)O[C@H](CO)[C@@H](O)[C@H](O)[C@H]1O"
A: 3760

====

- System: Rattus norvegicus
- assay explanation: Antidiabetic activity in Sprague-Dawley rat assessed as urinary glucose excretion at 1 mg/kg, po administered 1 hr prior to glucose challenge measured after 1 to 4 hrs relative to dapagliflozin
- Format: functional, Urine
readout name: Activity (mg)
Supply the numeric figure in mg, leaving out any unit text.

Below, each entry is followed by its recorded Activity result.
test smiles: [2H][C@@]1(c2ccc(Cl)c(Cc3ccc(OCC)cc3)c2)O[C@H](CO)[C@@H](O)[C@H](O)[C@H]1O
readout name: Activity
unit text: mg
readout number: 193
//
test smiles: [2H]C([2H])(C)Oc1ccc(Cc2cc([C@@H]3O[C@H](CO)[C@@H](O)[C@H](O)[C@H]3O)ccc2Cl)cc1
readout name: Activity
unit text: mg
readout number: 119
//
test smiles: [2H]C([2H])(c1ccc(OCC)cc1)c1cc([C@@H]2O[C@H](CO)[C@@H](O)[C@H](O)[C@H]2O)ccc1Cl
readout name: Activity
unit text: mg
readout number: 168
//
test smiles: [2H]C([2H])([2H])C([2H])([2H])Oc1ccc(Cc2cc([C@@H]3O[C@H](CO)[C@@H](O)[C@H](O)[C@H]3O)ccc2Cl)cc1
readout name: Activity
unit text: mg
readout number: 145

Q: If you can, please state the reported Activity value of "COc1ccc(Cc2cc([C@@H]3O[C@H](CO)[C@@H](O)[C@H](O)[C@H]3O)ccc2Cl)cc1" .
A: 233

Q: Which measured Activity value corresponds to "[2H]C([2H])([2H])Oc1ccc(C([2H])([2H])c2cc([C@@H]3O[C@H](CO)[C@@H](O)[C@H](O)[C@H]3O)ccc2Cl)cc1" ?
A: 101

====

- assay explanation: AUC (0 to infinity) in Sprague-Dawley rat at 3 mg/kg, po by LC-MS/MS analysis
- Type: ADME, organism-based
- Set-up: time infinity, dose 3 mg/kg, route oral
- condition parameters: plasma
Please respond with Fulfilled when measured AUC(0-inf) is strictly beneath 7000 ng·h/mL, and with Not fulfilled in all other cases.

test smiles: [2H]C([2H])(c1ccc(OC([2H])([2H])C([2H])([2H])[2H])cc1)c1cc([C@@H]2O[C@H](CO)[C@@H](O)[C@H](O)[C@H]2O)ccc1Cl
class: Not fulfilled
--
test smiles: [2H]C([2H])(C)Oc1ccc(Cc2cc([C@@H]3O[C@H](CO)[C@@H](O)[C@H](O)[C@H]3O)ccc2Cl)cc1
class: Not fulfilled
--
test smiles: [2H]C([2H])([2H])C([2H])([2H])Oc1ccc(Cc2cc([C@@H]3O[C@H](CO)[C@@H](O)[C@H](O)[C@H]3O)ccc2Cl)cc1
class: Not fulfilled
--
test smiles: [2H]C([2H])(c1ccc(OCC)cc1)c1cc([C@@H]2O[C@H](CO)[C@@H](O)[C@H](O)[C@H]2O)ccc1Cl
class: Not fulfilled
--
test smiles: COc1ccc(Cc2cc([C@@H]3O[C@H](CO)[C@@H](O)[C@H](O)[C@H]3O)ccc2Cl)cc1
class: Fulfilled
--
test smiles: [2H]C([2H])([2H])Oc1ccc(C([2H])([2H])c2cc([C@@H]3O[C@H](CO)[C@@H](O)[C@H](O)[C@H]3O)ccc2Cl)cc1
class: Fulfilled

// next entry
Q: In the record for "CCOc1ccc(Cc2cc([C@@H]3O[C@H](CO)[C@@H](O)[C@H](O)[C@H]3O)ccc2Cl)cc1" , is AUC(0-inf) less than 7000 ng·h/mL?
A: Not fulfilled

====

half-life values for the compounds below.
- assay explanation: Half life in Sprague-Dawley rat at 1 mg/kg, iv by LC-MS/MS analysis
- Type: ADME, organism-based
- Design: dose 1 mg/kg, route intravenous
- condition parameters: in vivo
Form field: result (number plus unit)

test smiles: COc1ccc(Cc2cc([C@@H]3O[C@H](CO)[C@@H](O)[C@H](O)[C@H]3O)ccc2Cl)cc1
half-life: 2.09 h

--- query ---
Q: What value of measured half-life is listed for "[2H]C([2H])([2H])Oc1ccc(Cc2cc([C@@H]3O[C@H](CO)[C@@H](O)[C@H](O)[C@H]3O)ccc2Cl)cc1" ?
A: 2.69 h
